# subjectOfTest: OsSMF1 (Oryza sativa, UniProt Q6ZLB0 1-436)
# Sequence: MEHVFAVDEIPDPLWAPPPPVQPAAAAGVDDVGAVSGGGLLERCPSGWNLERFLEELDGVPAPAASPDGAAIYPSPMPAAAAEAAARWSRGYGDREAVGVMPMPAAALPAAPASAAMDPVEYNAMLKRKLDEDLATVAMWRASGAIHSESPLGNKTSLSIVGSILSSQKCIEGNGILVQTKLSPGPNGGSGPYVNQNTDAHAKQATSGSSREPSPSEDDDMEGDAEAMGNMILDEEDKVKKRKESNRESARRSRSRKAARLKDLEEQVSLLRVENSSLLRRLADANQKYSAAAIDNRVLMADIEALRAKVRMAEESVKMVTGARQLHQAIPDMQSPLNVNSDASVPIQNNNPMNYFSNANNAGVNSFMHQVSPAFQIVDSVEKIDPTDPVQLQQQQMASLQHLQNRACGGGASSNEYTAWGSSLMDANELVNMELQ
# assayProcedure: protein-binding microarray (RPBM); PBS, 2% BSA, 51.3 ng/ul salmon testes DNA, 50 uM zinc acetate, 200 nM TF, 25 C, 1 h; high values mean tight binding
# conditionParameters: protein: recombinant; tags: N-terminal polyhistidine and DsRed monomer fusion (pET32a); chain copies: 2; label: CyDye5-dUTP incorporated in the synthesized complementary strand; 3' TTTTT single-stranded linker to array surface; dsDNA, one strand shown
Whole data set: some 39,000 sequences, median “fluorescence intensity (a.u.)” near 4,300, cut for the highest 2% near 39,000. This excerpt belongs to a sample that is enriched for the highest values.
Field: binding signal. Provide a value for each of the sequences that follow.

[ask] Could you share which binding signal value was measured for GAACGGGACCAGCTACTATAGTGAAATTTAGATTTCAAAGCGGAGTCACCTAGTGCAG ?
[reply] 42200 fluorescence intensity (a.u.)

[ask] Could you share which binding signal value was measured for CACGAGCTGGTGGGCATCGAGGACTCCACACACGCGCATCCGGAGTCACCTAGTGCAG ?
[reply] 42800 fluorescence intensity (a.u.)

[ask] Could you share which binding signal value was measured for AAGTAGTGTCTATGGTGCCATGTCAATAGGACATCATAATCGGAGTCACCTAGTGCAG ?
[reply] 3920 fluorescence intensity (a.u.)

[ask] Could you share which binding signal value was measured for GCTTATCGATAAACTCAGTGTATTTGCATTCAAATTTTGACGGAGTCACCTAGTGCAG ?
[reply] 3660 fluorescence intensity (a.u.)

[ask] Could you share which binding signal value was measured for TAAACTCTTTCTGTGAGTCAGCACAATAGCCCATCGTGCCCGGAGTCACCTAGTGCAG ?
[reply] 18700 fluorescence intensity (a.u.)

[ask] Could you share which binding signal value was measured for TGCACGCTGCGGCGTACGTCGCGTGCGCACACGGGAATTTCGGAGTCACCTAGTGCAG ?
[reply] 3190 fluorescence intensity (a.u.)

[ask] Could you share which binding signal value was measured for GGCTTCCCGCGCCACAAGCTTTGCCGCCACCTCCTCCTCGCGGAGTCACCTAGTGCAG ?
[reply] 3230 fluorescence intensity (a.u.)

[ask] Could you share which binding signal value was measured for AGTGCTAGTCATCACTGTATTAGATTTAGGAATCTCTTCTCGGAGTCACCTAGTGCAG ?
[reply] 3600 fluorescence intensity (a.u.)

[ask] Could you share which binding signal value was measured for GATTGGTAGTATTTAGTTGTGTATAATGTATTATTAGGTTCGGAGTCACCTAGTGCAG ?
[reply] 3720 fluorescence intensity (a.u.)

[ask] Could you share which binding signal value was measured for TAAGGCAAAAGCCAAAATTCAAATATAGTTAAAATTAAAGCGGAGTCACCTAGTGCAG ?
[reply] 7150 fluorescence intensity (a.u.)

[ask] Could you share which binding signal value was measured for AAATAGTCACACATAAAATACTATTCATATTTTATCATCTCGGAGTCACCTAGTGCAG ?
[reply] 13500 fluorescence intensity (a.u.)

[ask] Could you share which binding signal value was measured for GTACTCCGTACTAGTAGTGGCACTCAATGTTCGGTATCTGCGGAGTCACCTAGTGCAG ?
[reply] 50200 fluorescence intensity (a.u.)

[ask] Could you share which binding signal value was measured for CGGCATTGACCTGGTCTTTGTTCCACGTGGCGCTTAGGTGCGGAGTCACCTAGTGCAG ?
[reply] 8840 fluorescence intensity (a.u.)

[ask] Could you share which binding signal value was measured for AATCAATACAAAGTCTGAAAGCCATTATGGTGGCAGTAATCGGAGTCACCTAGTGCAG ?
[reply] 61300 fluorescence intensity (a.u.)

[ask] Could you share which binding signal value was measured for CGACGCGGCGGCGAAAAGTCGGCGAACTGCGGCGAGGTGGCGGAGTCACCTAGTGCAG ?
[reply] 30100 fluorescence intensity (a.u.)

[ask] Could you share which binding signal value was measured for CGCGCCATCGGCACGCTGGGCCAACACGGCACGGTGGACCCGGAGTCACCTAGTGCAG ?
[reply] 3820 fluorescence intensity (a.u.)

[ask] Could you share which binding signal value was measured for GCGGTCGGGCCGGCCCAGGAAATACCAGGCGACGTGGCGGCGGAGTCACCTAGTGCAG ?
[reply] 8410 fluorescence intensity (a.u.)

[ask] Could you share which binding signal value was measured for GTCAGTGGCTCAGTGCCACCCGTAGTGTACTGCCACTCCGCGGAGTCACCTAGTGCAG ?
[reply] 3370 fluorescence intensity (a.u.)

[ask] Could you share which binding signal value was measured for ACATGCAAAGATGCCACATCATCATCCACTATCACTAATTCGGAGTCACCTAGTGCAG ?
[reply] 17600 fluorescence intensity (a.u.)

[ask] Could you share which binding signal value was measured for ATAAAGTAACACATACACAAAGCCACATCATCAATATTTTCGGAGTCACCTAGTGCAG ?
[reply] 8990 fluorescence intensity (a.u.)

[ask] Could you share which binding signal value was measured for TTCCCGGTCTCTTATTATCCATATCATAAGTAAATTAGTTCGGAGTCACCTAGTGCAG ?
[reply] 7670 fluorescence intensity (a.u.)

====

# subjectOfTest: OsSMF1 (Oryza sativa, UniProt Q6ZLB0 1-436)
# Sequence: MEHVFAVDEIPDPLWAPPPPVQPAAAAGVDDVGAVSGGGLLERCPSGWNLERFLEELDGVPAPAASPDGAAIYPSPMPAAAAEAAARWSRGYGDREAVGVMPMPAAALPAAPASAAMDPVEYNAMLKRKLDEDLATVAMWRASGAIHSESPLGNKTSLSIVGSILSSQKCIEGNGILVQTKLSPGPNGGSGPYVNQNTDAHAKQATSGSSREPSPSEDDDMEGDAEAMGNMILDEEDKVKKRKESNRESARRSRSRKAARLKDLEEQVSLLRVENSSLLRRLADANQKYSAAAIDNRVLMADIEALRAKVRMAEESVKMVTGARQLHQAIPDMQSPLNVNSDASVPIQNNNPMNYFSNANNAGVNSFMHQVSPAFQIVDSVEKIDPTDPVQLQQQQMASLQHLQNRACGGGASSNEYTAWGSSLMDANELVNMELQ
# assayProcedure: protein-binding microarray (RPBM); PBS, 2% BSA, 51.3 ng/ul salmon testes DNA, 50 uM zinc acetate, 200 nM TF, 25 C, 1 h; high values mean tight binding
# conditionParameters: protein: recombinant; tags: N-terminal polyhistidine and DsRed monomer fusion (pET32a); chain copies: 2; label: CyDye5-dUTP incorporated in the synthesized complementary strand; 3' TTTTT single-stranded linker to array surface; dsDNA, one strand shown
Over roughly 39,000 sequences, “fluorescence intensity (a.u.)” has its median near 4,300; the highest 2% begin near 39,000. For the sample, the highest values were picked, then their nearest neighbours and some sequences at random.
testReadout: binding signal

[ask] Which binding signal is reported with OsSMF1 (Oryza sativa, UniProt Q6ZLB0 1-436) for this entry: GACGCATGCACGCCGCCACGTCGCGCGCCATGGCCACCCCCGGAGTCACCTAGTGCAG ?
[reply] 9700 fluorescence intensity (a.u.)

[ask] Which binding signal is reported with OsSMF1 (Oryza sativa, UniProt Q6ZLB0 1-436) for this entry: TTAGTGAACGGTGCAACGCGTCAAGGACGAGTCAACGCGCCGGAGTCACCTAGTGCAG ?
[reply] 4850 fluorescence intensity (a.u.)

[ask] Which binding signal is reported with OsSMF1 (Oryza sativa, UniProt Q6ZLB0 1-436) for this entry: GCCGGCGTCGCCGTCGGGGATGCACCTCGGCGCGTCCGTCCGGAGTCACCTAGTGCAG ?
[reply] 3550 fluorescence intensity (a.u.)

[ask] Which binding signal is reported with OsSMF1 (Oryza sativa, UniProt Q6ZLB0 1-436) for this entry: CTTCACCGGCGGCGAGGAGCACGTCACCGGCGGCGAGCACCGGAGTCACCTAGTGCAG ?
[reply] 4120 fluorescence intensity (a.u.)

[ask] Which binding signal is reported with OsSMF1 (Oryza sativa, UniProt Q6ZLB0 1-436) for this entry: CGCCACCGTCACCGACCGCGCGCGCACGCACGCACACTCCCGGAGTCACCTAGTGCAG ?
[reply] 3390 fluorescence intensity (a.u.)

[ask] Which binding signal is reported with OsSMF1 (Oryza sativa, UniProt Q6ZLB0 1-436) for this entry: AGAGAGAGAGAGAGAGAGAGAGAGCTCAGGATCGACGAGACGGAGTCACCTAGTGCAG ?
[reply] 16900 fluorescence intensity (a.u.)

[ask] Which binding signal is reported with OsSMF1 (Oryza sativa, UniProt Q6ZLB0 1-436) for this entry: TGCAGCAGGAGATCGATCGATCGATCGATCCAACCGAATGCGGAGTCACCTAGTGCAG ?
[reply] 3260 fluorescence intensity (a.u.)

[ask] Which binding signal is reported with OsSMF1 (Oryza sativa, UniProt Q6ZLB0 1-436) for this entry: TCGGCGCCGCGCCGCGCCACGGAGGGTGTCACGAGACCGCCGGAGTCACCTAGTGCAG ?
[reply] 4790 fluorescence intensity (a.u.)

[ask] Which binding signal is reported with OsSMF1 (Oryza sativa, UniProt Q6ZLB0 1-436) for this entry: AATATGAACTGATAGGATTTGTTTTCACACCATACCAAACCGGAGTCACCTAGTGCAG ?
[reply] 59700 fluorescence intensity (a.u.)

[ask] Which binding signal is reported with OsSMF1 (Oryza sativa, UniProt Q6ZLB0 1-436) for this entry: GAGGGGTTACGCGTTAGGCGCTGCCACGTGTATCGATCGGCGGAGTCACCTAGTGCAG ?
[reply] 21900 fluorescence intensity (a.u.)
